System: C. albicans CaCi-17 growth, Alamar Blue fluorescence, 48 h
Protocol text: fluconazole-resistant Candida albicans growth inhibitors – clinical isolate, Alamar Blue, dry powder, confirmation (AID 602189)
Results filed as inconclusive are left out.
In this section we review reported AC50 values for a set of compounds.

>  <Compound>
C/C(=N\NC(=O)c1cc2ccccc2cc1O)c1ccccn1

>  <Target or test system>
C. albicans CaCi-17 growth, Alamar Blue fluorescence, 48 h

>  <AC50>
5.54 µM

$$$$
>  <Compound>
CN1CCN(C(c2ccc(C(F)(F)F)cc2)c2ccc3cccnc3c2O)CC1 (centres undefined)

>  <Target or test system>
C. albicans CaCi-17 growth, Alamar Blue fluorescence, 48 h

>  <AC50>
7.72 µM

$$$$
>  <Compound>
Oc1c(CN2CCc3ccccc3C2)cc(Cl)c2cccnc12

>  <Target or test system>
C. albicans CaCi-17 growth, Alamar Blue fluorescence, 48 h

>  <AC50>
5.46 µM

$$$$
>  <Compound>
Oc1c(C(c2ccc(Cl)cc2)N2CCCC2)ccc2cccnc12 (centres undefined)

>  <Target or test system>
C. albicans CaCi-17 growth, Alamar Blue fluorescence, 48 h

>  <AC50>
8.73 µM

$$$$
